- Tested on: Hyperlipidemic Hamster
- Assay protocol: In Vivo Assay of Hypolipidemic Agents Using the Hyperlipidemic Hamster
- Protocol conditions: Mesocricetus auratus, po, 168 h, 50 mg/kg once daily oral, 7 days; percent change versus control, negative = lowering; read-out: % Reduction (in vivo) Cholest. Esters
- Experimental: In Vivo Assay of Hypolipidemic Agents Using the Hyperlipidemic Hamster Hamsters are separated into groups of six and given a controlled cholesterol diet (Purina Chow #5001 containing 0.5% cholesterol) for seven days. Diet consumption is monitored to determine dietary cholesterol exposure in the face of test compounds. The animals are dosed with the test compound once daily beginning with the initiation of diet. […]
Property label: change in vivo at 50 mg/kg
Note: a bare number is incomplete; add the unit.

A selection of reference data follows.
Molecule: COc1ccc(N2C(=O)[C@H](CCCc3ccccc3)[C@H]2c2ccc(CN3CCN(C)CC3)cc2)cc1 (relative stereo) [Example 19C]
Experimental system: Hyperlipidemic Hamster
change in vivo at 50 mg/kg: -46%

Molecule: COc1ccc([C@@H]2[C@@H](CCCCc3ccccc3)C(=O)N2c2ccc(OC)cc2)cc1 (relative stereo)
Experimental system: Hyperlipidemic Hamster
change in vivo at 50 mg/kg: -72%

Note to self: change in vivo at 50 mg/kg recorded for COc1ccc([C@@H]2[C@@H](CCCc3ccccc3)C(=O)N2c2cccc(OC)c2)cc1 (relative stereo) was -91%

Entry under test: COc1ccc(N2C(=O)[C@](C)(CCc3ccccc3)[C@@H]2c2ccccc2)cc1 (relative stereo) . Its change in vivo at 50 mg/kg was 0%
